- experimental_system: 1-deoxy-D-xylulose 5-phosphate reductoisomerase (Escherichia coli K-12)
- Sequence (P45568 whole entry): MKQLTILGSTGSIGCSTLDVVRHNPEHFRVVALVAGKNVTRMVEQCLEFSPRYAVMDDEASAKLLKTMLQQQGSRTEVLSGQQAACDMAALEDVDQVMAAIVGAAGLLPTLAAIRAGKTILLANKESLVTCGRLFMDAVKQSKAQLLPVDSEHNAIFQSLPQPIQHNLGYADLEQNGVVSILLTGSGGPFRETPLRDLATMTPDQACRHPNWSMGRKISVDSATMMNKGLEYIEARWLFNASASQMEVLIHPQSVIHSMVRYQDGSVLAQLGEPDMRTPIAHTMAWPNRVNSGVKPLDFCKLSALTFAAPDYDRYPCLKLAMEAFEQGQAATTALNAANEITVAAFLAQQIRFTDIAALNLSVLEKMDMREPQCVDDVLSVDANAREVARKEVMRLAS
Assignment: determine reported pIC50 for the given compounds.
Answers are plain numbers, as −log10 of the molar value.

Example entries and their recorded answers appear below.
{"columns": ["compound", "assay_readout", "measured_number"],
 "data": [
  ["NCCC(=O)N(O)CCCP(=O)(O)O", "pIC50", 4.80],
  ["CC(=O)N(O)CCC(C)P(=O)(O)O (stereo not drawn)", "pIC50", 7.27],
  ["CCCC(CCN(O)C=O)P(=O)(O)O (stereo not drawn)", "pIC50", 5.09]
]}

The following compounds each have a reported value; give each one's pIC50.
1. CC(=O)N(O)CCCP(=O)(O)O [FR-900098]
2. O=C(C1CC1)N(O)CCCP(=O)(O)O
3. O=C(C(Cl)Cl)N(O)CCCP(=O)(O)O
4. CCCC(CCN(O)C(C)=O)P(=O)(O)O (stereo not drawn)
5. CC(=O)N(O)C/C=C/P(=O)(O)O
6. CCOC(=O)C(=O)N(O)C1CCC(P(=O)(O)O)C1 (stereo not drawn)
7. CCCCCCCC(=O)N(O)CCCP(=O)(O)O
8. CN(CC(=O)NO)CP(=O)(O)O

[7.55, 4.44, 6.75, 5.18, 7.19, 4.80, 5.77, 4.50]

###

- experimental_system: 1-deoxy-D-xylulose 5-phosphate reductoisomerase (Escherichia coli K-12)
- experiment_summary: Inhibitory concentration against DOXP reductoisomerase
assay_readout: IC50 (µM)
Answers are plain numbers, in µM.

Example entries and their recorded answers appear below.
{"columns": ["compound", "IC50 / µM"],
 "data": [
  ["O=C(CNCP(=O)(O)O)NO", 16.2],
  ["CC(=O)N(O)CC(C)CP(=O)(O)O (configuration not stated)", 0.646],
  ["CC(=O)N(O)C1CCC(P(=O)(O)O)C1 (configuration not stated)", 2.34],
  ["CC(O)CC(=O)N(O)CCCP(=O)(O)O (configuration not stated)", 50.1]
]}

The following compounds each have a reported value; give each one's IC50.
1. CCC(CCN(O)C=O)P(=O)(O)O (configuration not stated)
2. CCC(CCN(O)C(C)=O)P(=O)(O)O (configuration not stated)

[1.78, 0.708]

###

- experimental_system: 1-deoxy-D-xylulose 5-phosphate reductoisomerase (Escherichia coli K-12)
- Sequence (P45568 whole entry): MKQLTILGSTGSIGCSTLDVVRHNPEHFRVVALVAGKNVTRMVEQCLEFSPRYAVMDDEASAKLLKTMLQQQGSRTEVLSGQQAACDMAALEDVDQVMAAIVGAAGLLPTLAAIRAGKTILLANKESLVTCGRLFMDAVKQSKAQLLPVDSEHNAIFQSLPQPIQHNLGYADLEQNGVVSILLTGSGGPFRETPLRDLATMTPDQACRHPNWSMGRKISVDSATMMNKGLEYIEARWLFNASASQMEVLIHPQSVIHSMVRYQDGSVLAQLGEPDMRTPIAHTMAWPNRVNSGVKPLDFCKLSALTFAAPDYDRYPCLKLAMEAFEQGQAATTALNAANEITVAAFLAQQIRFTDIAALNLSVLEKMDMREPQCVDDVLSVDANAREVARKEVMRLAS
pIC50: −log10 of the molar value.
Answer not satisfied if pIC50 is under 5, and satisfied if it is 5 or more.

Look over these answered cases.
{"columns": ["molecule", "discrete_label"],
 "data": [
  ["O=C(c1ccccc1O)N(O)C1CCC(P(=O)(O)O)C1 (stereo unspecified)", "not satisfied"],
  ["CS(=O)(=O)N(O)CCCP(=O)(O)O", "not satisfied"],
  ["CC(C)C(CCN(O)C=O)P(=O)(O)O (stereo unspecified)", "satisfied"],
  ["O=C(CCCP(=O)(O)O)NO", "satisfied"]
]}

Consider the additional molecule presented here.
Is it the case that O=C(N(O)CCCP(=O)(O)O)C(F)(F)F has pIC50 reaching or exceeding 5?
not satisfied
